Cited source: patent EP1137645B1

# Test system: VZV strain Ellen
# protocol.text: VZV antiviral (ELISA) assay
# Assay type: cell-based
# measurement.context: Human alphaherpesvirus 3; VZV strain Ellen, HFF cells, ELISA; read-out: IC50 (ug/ml) VZV
value.kind: IC50

Examples from the recorded data:
molecule	IC50
O=C(Nc1ccc(NC(=S)NCc2ccccc2)cc1)c1ccccc1F	> 10 µg/mL
O=C(Nc1ccc(NC(=S)NCc2cc(C(F)(F)F)cc(C(F)(F)F)c2)cc1)c1ccccc1F	> 10 µg/mL
CC(NC(=S)Nc1ccc(NC(=O)c2cccc(F)c2)cc1)c1ccc(F)cc1 (centres unmarked)	> 7.5 µg/mL

Task: Form field: reported IC50 of O=C(Nc1ccc(NC(=S)Nc2cccc(O)c2)cc1)c1ccccc1F
Output: > 10 µg/mL

Task: Form field: reported IC50 of C[C@H](NC(=S)Nc1ccc(NC(=O)c2ccccc2F)cc1)c1ccccc1
Output: 0.27 µg/mL

Task: Form field: reported IC50 of O=C(Nc1ccc(NC(=S)Nc2cccc(OC(F)(F)F)c2)cc1)c1ccccc1F
Output: > 10 µg/mL

Task: Form field: reported IC50 of CC(NC(=S)Nc1ccc(NC(=O)c2ccccc2)cc1)c1ccc(F)cc1 (centres unmarked)
Output: > 10 µg/mL

Task: Form field: reported IC50 of COc1cc(OC)c(NC(=S)Nc2ccc(NC(=O)c3ccccc3Br)cc2)cc1Cl
Output: > 15 µg/mL

Task: Form field: reported IC50 of Nc1ccc(F)cc1NC(=S)Nc1ccc(NC(=O)c2ccccc2F)cc1
Output: > 10 µg/mL

Task: Form field: reported IC50 of O=C(Nc1ccc(NC(=S)NCc2cc(F)cc(F)c2)cc1)c1ccccc1F
Output: > 10 µg/mL

Task: Form field: reported IC50 of CC(NC(=S)Nc1ccc(C(=O)Nc2ccc(F)cc2)cc1)c1ccc(F)cc1 (centres unmarked)
Output: 0.87 µg/mL
